- TARGET_DESC: Apelin receptor (Homo sapiens)
- Sequence (P35414 whole entry): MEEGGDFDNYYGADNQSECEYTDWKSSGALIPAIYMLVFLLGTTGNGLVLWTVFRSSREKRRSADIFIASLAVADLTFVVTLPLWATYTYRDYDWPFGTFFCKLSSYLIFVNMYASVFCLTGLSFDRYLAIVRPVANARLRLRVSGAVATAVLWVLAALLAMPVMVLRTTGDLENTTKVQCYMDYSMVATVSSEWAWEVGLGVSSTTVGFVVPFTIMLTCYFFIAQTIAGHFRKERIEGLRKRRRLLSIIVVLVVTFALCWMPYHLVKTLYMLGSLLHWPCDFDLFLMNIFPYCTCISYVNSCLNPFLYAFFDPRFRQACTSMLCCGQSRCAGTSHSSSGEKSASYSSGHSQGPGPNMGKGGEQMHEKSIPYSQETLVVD
- METHOD_NOTES: [35S]GTPgammaS Binding
pEC50: −log10 of the molar value.
PROPERTY_LABEL: pEC50

{"columns": ["COMPOUND", "TARGET_DESC", "PROPERTY_LABEL", "VALUE_REPORTED"],
 "data": [
  ["Cc1cnc([C@H](OC(C)C)[C@H](C)S(=O)(=O)Nc2nnc3n2-c2c(F)cccc2/C=C\\CC3)nc1 (single isomer, unassigned)", "Apelin receptor (Homo sapiens)", "pEC50", 7.01]
]}
